B1: Homeobox protein cut-like 1, residues 548 to 629; numbered along this chain, P39880 (parent)
chain: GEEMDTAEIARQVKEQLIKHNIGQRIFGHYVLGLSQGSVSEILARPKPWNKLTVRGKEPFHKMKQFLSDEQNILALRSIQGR

Variants of: B1
Experiment: abundance fitness (aPCA) (normalised: wild type 0, dead -1); higher = more abundant; growth selection in yeast, the domain comes from the species named
Conditions: Homo sapiens
attribute.measured: abundance fitness
One number for each entry.

{"chain.sequence": "GEEMDTAEIARQVKEQLIKHNIGQRIFGHRVLGLSQGSVSEILARPKPWNKLTVRGKEPFHKMKQFLSDEQNILALRSIQGR [Y30R]", "abundance fitness": -0.201}
{"chain.sequence": "GEEMDTAEIARQVKEQLIKHNIGQRIFGHYVLGLSQGSVSEILARPKPWNKLTVRGKEPFHKMKQFLDDEQNILALRSIQGR [S68D]", "abundance fitness": -0.02}
{"chain.sequence": "GEEMDTAEIARQVKEQLIKHNIGQRIFGHYVLGLSQGSVSEILARPKPWNKLTVRGKEPFHKYKQFLSDEQNILALRSIQGR [M63Y]", "abundance fitness": -0.94}
{"chain.sequence": "GEEMDTAEIARQVKEQLIAHNIGQRIFGHYVLGLSQGSVSEILARPKPWNKLTVRGKEPFHKMKQFLSDEQNILALRSIQGR [K19A]", "abundance fitness": -0.171}
{"chain.sequence": "GEEMDTAEIARQVKEQLIKHNIGQRIFGKYVLGLSQGSVSEILARPKPWNKLTVRGKEPFHKMKQFLSDEQNILALRSIQGR [H29K]", "abundance fitness": 0.022}

Provide abundance fitness values for the following items, in order.
1. GEEMDTANIARQVKEQLIKHNIGQRIFGHYVLGLSQGSVSEILARPKPWNKLTVRGKEPFHKMKQFLSDEQNILALRSIQGR [E8N]
2. GEEMDTAEPARQVKEQLIKHNIGQRIFGHYVLGLSQGSVSEILARPKPWNKLTVRGKEPFHKMKQFLSDEQNILALRSIQGR [I9P]
3. GEEMDTAEIARQVKEQLIKHNIGQRIFGHYVLGLSQGSVSEILARPKPWNKLTVRGKEPFHKMKQFLSDAQNILALRSIQGR [E70A]
4. GEEDDTAEIARQVKEQLIKHNIGQRIFGHYVLGLSQGSVSEILARPKPWNKLTVRGKEPFHKMKQFLSDEQNILALRSIQGR [M4D]
5. GEEMDTAEHARQVKEQLIKHNIGQRIFGHYVLGLSQGSVSEILARPKPWNKLTVRGKEPFHKMKQFLSDEQNILALRSIQGR [I9H]
6. GEEMDTAEIARQVKEQLIKHNIGQRIFGHYVLGLSQGSVSEILARPKPWNKLTVRGKEPFHKMKQQLSDEQNILALRSIQGR [F66Q]

1: -0.211; 2: -0.605; 3: -0.026; 4: -0.304; 5: -0.56; 6: -0.791

Provide abundance fitness values for the following items, in order.
1. GEEMDTAEISRQVKEQLIKHNIGQRIFGHYVLGLSQGSVSEILARPKPWNKLTVRGKEPFHKMKQFLSDEQNILALRSIQGR [A10S]
2. GEEMDTAEIARQVKEQLIKHNIGQRIFGHYVLGLSQGSVSEILARPKPWNKLTVRGKEPFHKMKQFLSDEQMILALRSIQGR [N72M]

1: -0.151; 2: -0.132
